TARGET_OF_ASSAY: Human recombinant MMP-13 (Homo sapiens, UniProt P45452)
Construct: made in house; host or cells: baculovirus / insect cells
ASSAY_OVERVIEW: In vitro MMP inhibition, Ki determination (fluorogenic substrate II)
Format: biochemical
EXPERIMENTAL_CONDITIONS: substrate (II) 4 μM, 1 hr room temperature; apparent Ki, values in parenthesis
Procedure: Several hydroxamates and salts thereof were analyzed in in vitro assays to determine their ability to inhibit the MMP cleavage of peptide substrates. Inhibition (Ki) and IC50 constants were calculated from the assayed hydroxamate-MMP interactions. […] The assays from which the Ki determinations were made were performed as follows. […] In the absence of MMP inhibitory activity, substrate II was cleaved at the Gly-Leu bond resulting in an increase of relative fluorescence. […]
Counter-ions that a name gives are not always drawn.
The threshold is 0.6 nM. Values of Ki beneath it are tagged true; values meeting or exceeding it are tagged false.

{"COMPOUND": "O=C(NO)C1(S(=O)(=O)c2ccc(OCCCn3nnc(-c4ccc(OC(F)(F)F)cc4)n3)cc2)CCN(C2CC2)CC1", "ASSIGNED_CLASS": "true"}
{"COMPOUND": "CCN1CCC(C(=O)NO)(S(=O)(=O)c2ccc(OCCCc3cccc(-c4ccccc4)c3)cc2)CC1", "ASSIGNED_CLASS": "false"}
{"COMPOUND": "CCN1CCC(C(=O)NO)(S(=O)(=O)c2ccc(OCCCc3nc(-c4ccc(OC(F)(F)F)cc4)no3)cc2)CC1 [Example 41, Hydrochloride]", "ASSIGNED_CLASS": "false"}

I wonder whether `COCCN1CCC(C(=O)NO)(S(=O)(=O)c2ccc(OCCCc3cccc(-c4ccc(F)c(F)c4)c3)cc2)CC1` has Ki below 0.6 nM. Can you tell?
false

I wonder whether `COCCN1CCC(C(=O)NO)(S(=O)(=O)c2ccc(OCCc3cccc(-c4ccccc4)c3)cc2)CC1` has Ki below 0.6 nM. Can you tell?
false

I wonder whether `COCCN1CCC(C(=O)NO)(S(=O)(=O)c2ccc(OCCCn3nnc(-c4ccc(OC(F)(F)F)cc4)n3)cc2)CC1` has Ki below 0.6 nM. Can you tell?
true
